From: patent US7723537B2

tested on: mushroom tyrosinase; test: Mushroom tyrosinase assay; type: biochemical; details: 1 micro-M; slope of 475-nm absorbency vs ethanol control, L-DOPA substrate
REPORTED_METRIC: Tyrosinase activity (% of ethanol control) (%)

A = O=c1ccc2ccc(O)cc2o1 [7-Hydroxy Coumarin, reference compound]
B = CCc1ccc(O)cc1O [4-Ethyl Resorcinol, reference compound]
In: Lab notebook, comparison: A versus B , higher Tyrosinase activity (% of ethanol control) goes to which? Answer format: the label of the selected item.
Out: A
(A: 100%, B: 46.3%)

====

System: mushroom tyrosinase
Test: Mushroom tyrosinase assay
Format: biochemical
Settings: 1 micro-M; slope of 475-nm absorbency vs ethanol control, L-DOPA substrate
Procedure: Mushroom tyrosinase inhibition is indicative of reduction in melanin synthesis, thereby showing skin lightening effect. […] Absorbency was read at 475-nm over the following time points: 0, 2, 4, and 6.5 minutes. The data is plotted as 475-nm absorbency vs. time (minutes) and the slope of the line is calculated (ΔAbs 475 nm/min). Values are expressed as the percentage of the respective untreated ethanol control reaction.
REPORTED_METRIC: Tyrosinase activity (% of ethanol control) (%)

INSERT INTO measurements (compound, target_system, measured) VALUES
  ('COC(=O)CC(C)c1ccc(O)cc1O (stereo not drawn) [D1, Methyl 3-(2,4-dihydroxyphenyl)-butyrate]', 'mushroom tyrosinase', 73.1),
  ('CC1CC(=O)Oc2cc(O)ccc21 (stereo not drawn) [B1, 7-hydroxy-3,4-dihydro-4-methylcoumarin]', 'mushroom tyrosinase', 94.2),
  ('CC(CC(=O)O)c1ccc(O)cc1O (stereo not drawn) [II, 3-(2,4-dihydroxyphenyl)-butyric acid]', 'mushroom tyrosinase', 73.3);
